target: α-glucosidase (Saccharomyces cerevisiae); construct: purchased Merck KGaA, Darmstadt, Germany; experiment: Yeast α-glucosidase inhibitory assay (pNPG substrate, absorbance 405 nm); type: biochemical; conditions: −Log IC50, α-glucosidase 0.05 × 10^−6 M; 2 mM pNPG
pIC50: −log10 of the molar value.

- STRUCTURE_STRING: "C=CCc1ccc(O)c(-c2cc(CC=C)ccc2O)c1"
  pIC50: 4.55

====

target: α-glucosidase (Saccharomyces cerevisiae, UniProt P38158); construct: purchased Merck KGaA, Darmstadt, Germany; assay: Yeast α-glucosidase inhibitory assay (pNPG substrate, absorbance 405 nm); type: biochemical; conditions: IC50, α-glucosidase 0.075 × 10^−6 M; 2 mM pNPG
Sequence (P38158 whole entry): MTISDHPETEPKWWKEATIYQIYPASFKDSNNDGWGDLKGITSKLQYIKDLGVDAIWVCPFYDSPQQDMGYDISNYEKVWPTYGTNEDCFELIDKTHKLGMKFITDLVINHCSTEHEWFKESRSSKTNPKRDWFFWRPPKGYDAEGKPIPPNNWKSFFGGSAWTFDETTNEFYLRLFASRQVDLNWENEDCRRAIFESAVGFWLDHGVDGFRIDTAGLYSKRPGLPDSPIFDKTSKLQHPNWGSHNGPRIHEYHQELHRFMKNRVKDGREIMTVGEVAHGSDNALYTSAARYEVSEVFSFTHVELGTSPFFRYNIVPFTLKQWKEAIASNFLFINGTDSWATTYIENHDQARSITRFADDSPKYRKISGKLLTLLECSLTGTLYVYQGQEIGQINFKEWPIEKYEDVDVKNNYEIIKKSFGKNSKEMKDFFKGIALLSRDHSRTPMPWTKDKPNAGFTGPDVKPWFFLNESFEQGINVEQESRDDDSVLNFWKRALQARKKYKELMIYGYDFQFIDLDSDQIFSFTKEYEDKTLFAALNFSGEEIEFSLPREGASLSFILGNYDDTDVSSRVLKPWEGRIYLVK
RECORDED_ENDPOINT: IC50 (µM)

- STRUCTURE_STRING: "C=CCc1ccc(O)c(-c2cc(CC=C)ccc2O)c1"
  UOM: "µM"
  RECORDED_MEASUREMENT: 32.6

Data provenance: paper PMC8880268
